# Test system: Leishmania donovani
# protocol notes: Antileishmanial activity against axenic amastigote Leishmania donovani MHOM/SD/1962/1S-Cl2d assessed as inhibition of parasite growth after 24 hrs at 15 uM by alamarBlue assay
# Type: functional
Would you mind labelling by inhibition at 15 µM? At or over 50% is Y, under is N.

Asked: Is inhibition at 15 µM at least 50%? Consider Cc1ccccc1C(=O)Nc1cccc(-c2nc3ccccc3[nH]2)c1
Given back: N

Asked: Note, next up: COc1ccccc1C(=O)Nc1cccc(-c2nc3ccccc3[nH]2)c1
Given back: N

Asked: Note, next up: Cc1cccc2[nH]c(-c3cccc(NC(=O)c4cccs4)c3)nc12
Given back: Y

Asked: Note, next up: O=C(Nc1ccccc1)Nc1ccccc1-c1nc2ccccc2[nH]1
Given back: N

Asked: Note, next up: O=C(Nc1ccccc1)Nc1cccc(-c2nc3ccccc3[nH]2)c1
Given back: Y

Asked: Note, next up: COc1ccc(C(=O)Nc2cccc(-c3nc4ccccc4[nH]3)c2)cc1
Given back: Y
